Assay: H1N1 influenza NS1A inhibitors, functional cell based assay (AID 504329)
Settings: percent inhibition, at 12.5 µM, hits give high values
Out of some 340,000 compounds screened, about 1,000 (0.29%) were called active. Only a sample is shown. Measured potencies and affinities stand elsewhere.
Recorded inhibition values for a group of molecules are listed next.
reported_metric: inhibition (%)

INSERT INTO results (molecule, measure_unit, measured_value) VALUES
  ('Cc1ccc(S(=O)(=O)NNC(=O)c2cnn(-c3ccc(Cl)cc3)c2C(F)(F)F)cc1', '%', -16.4),
  ('Nn1c(SC/C=C/c2ccccc2)nnc1-c1ccncc1', '%', -1.07),
  ('O=C1C(Cl)=C(Nc2ccccc2)C(=O)c2ccccc21', '%', -3.5),
  ('CN(C)c1ccc(/C=C2\C(=O)NC(=O)N(Cc3ccc(F)cc3)C2=O)cc1', '%', -0.15),
  ('COc1ccc(NC(=S)N(CCO)Cc2ccccc2)cc1', '%', 1.27),
  ('Oc1[nH]c2ccccc2c1N=Nc1ccccn1', '%', -23.1),
  ('CC(=O)c1ccc(NC2=C(N3CCOCC3)C(=O)c3ccccc3C2=O)cc1', '%', 3.86),
  ('Cc1cc(-c2ccc(C)c(S(=O)(=O)Nc3cccc(CN4CCCC4)c3)c2)on1', '%', -3.07),
  ('Cc1ccn(CCC(=O)N2CCCC(CCC(=O)N3CCN(c4ccccn4)CC3)C2)n1 (centres undefined)', '%', -2.86),
  ('O=C(Nc1ccncc1)c1cc2ccccc2cc1O', '%', -5.8),
  ('COc1ccc(/C=N/Nc2nccnc2Cl)c(OC)c1', '%', -10.3),
  ('O=[N+]([O-])c1ccc2c(c1)C(=Nc1ccccc1)c1ccccc1-2', '%', 19.1),
  ('Nc1c(NC2CCCCC2)c2ccccc2oc1=O', '%', 4.37),
  ('O=C(N/N=C/c1cc2c(cc1Br)OCO2)c1cccnc1', '%', 3.42),
  ('CNC(=S)NN=C(C)CCCC(C)=NNC(=S)NC', '%', -24.1),
  ('Cc1ccc(NC2=C(Cl)C(=O)c3ccccc3C2=O)cc1', '%', 2.23),
  ('Cc1ccc(C(=O)N/N=C/c2c(O)ccc3ccccc23)cn1', '%', -7.55),
  ('O=C(N/N=C/c1c(O)ccc2ccccc12)c1ccc(Br)o1', '%', -3.25),
  ('O=C(N/N=C/c1cccc2ccccc12)c1cccnc1', '%', -1.84);

---

Recorded inhibition values for a group of compounds are listed next.
Experiment: H1N1 influenza NS1A inhibitors, functional cell based assay (AID 504329)
Details: percent inhibition, at 12.5 µM, hits give high values
In all, about 340,000 compounds went through this assay and about 1,000 (0.29%) were called active. Only a sample is shown. Entries with a potency or affinity are not part of this list.
reported_metric: inhibition

INSERT INTO measurements (compound, reported_metric, measured_value) VALUES
  ('Cc1ccc(C(=O)Nc2ccccn2)cc1S(=O)(=O)N1CCOCC1', 'inhibition', '-1.96% (inactive)'),
  ('Cc1c(OC(C)C(=O)NCc2ccccn2)ccc2c3c(c(=O)oc12)CCCC3 (centres undefined)', 'inhibition', '-4.86% (inactive)'),
  ('CC(C)Nc1nc(-c2ccccn2)nc(-c2ccccc2)c1C#N', 'inhibition', '1.07% (inactive)'),
  ('O=C(CN1CCCc2ccccc21)N/N=C/c1c(O)ccc2ccccc12', 'inhibition', '-3.7% (inactive)'),
  ('Cc1noc(/C=C/N(C)C)c1S(=O)(=O)N1CCN(c2ccc(F)cc2)CC1', 'inhibition', '4.41% (inactive)'),
  ('COc1ccc(Cl)cc1NS(=O)(=O)c1cn(C)nc1C', 'inhibition', '-6.95% (inactive)'),
  ('Cc1cccc(/C=N/NC(=O)CN2CCCCCCC2)c1', 'inhibition', '5.95% (inactive)'),
  ('Cc1ccc(C=Nc2ccc(N(C)C)cc2)o1', 'inhibition', '22.3% (inactive)'),
  ('O=C(Nc1ccccc1)c1ccc(F)c(S(=O)(=O)N2CCOCC2)c1', 'inhibition', '5.59% (inactive)'),
  ('Cc1nnc(-c2ccccc2)nc1N(C)C', 'inhibition', '-13.6% (inactive)'),
  ('O=C(CN1CCOCC1)N/N=C/c1c(O)ccc2ccccc12', 'inhibition', '14.4% (inactive)'),
  ('Cc1ccc(C)c(N=Nc2ccc(O)c3ncccc23)c1', 'inhibition', '5.69% (inactive)'),
  ('Cc1nc2ccccc2c(=O)n1CCCN1CCOCC1', 'inhibition', '-0.85% (inactive)'),
  ('O=C1ON=C(c2ccccc2)/C1=C/c1ccc(-c2ccccc2[N+](=O)[O-])o1', 'inhibition', '-1.51% (inactive)');
